Test system: Plasmodium falciparum NF54 stage V gametocytes
PROTOCOL DETAILS: viability index relative to DMSO control (fraction); higher = less gametocyte killing
CONDITION NOTES: 1.25 µM, incubation time: 72 h
Whole data set: some 3,600 compounds, median “viability index relative to DMSO control” near 0.81, cut for the lowest 2% near 0.13. The list comes from a sample in which the lowest values are over-represented; it also holds close analogues and randomly drawn compounds.
Consider the reported viability index of an entry and match it to a band in group 1 (below 0.4), group 2 (0.4 to below 0.8), group 3 (0.8 or more)

Completed entries (count: 8):
CCCn1c(=N)c(C(=O)NC2CCCCC2)cc2c(=O)n3cccc(C)c3nc21 = group 3
COc1ccccc1NC1=CC(=NS(=O)(=O)c2ccccc2)c2ccccc2C1=O = group 1
COc1cc(OC)c(NC(=O)C2c3ccccc3C(=O)N(CC(C)C)C2c2cccs2)cc1Cl (stereo unspecified) = group 1
O=C1C(Sc2nc[nH]n2)=CC(=NS(=O)(=O)c2cccs2)c2ccccc21 = group 2
O=C(Nc1ccc(F)c(F)c1)c1ccccc1[N+](=O)[O-] = group 3
O=C(CNCCc1ccccc1)NC(c1ccccc1)c1ccccc1 = group 2
CC(=O)N(C1=C(N(C)C)C(=O)c2ccccc2C1=O)c1ccc(F)cc1 = group 1
COc1ccc2c(c1)OC(O)(C(F)(F)C(F)(F)F)CC2=O (stereo unspecified) = group 2

*Q* Kindly identify the class of Cc1cc(NCCCN(C)C)c2ccccc2n1 .
*A* group 3

*Q* Please give the result for Cc1oc2c(c1C(=O)NCC1CCCO1)C(=O)c1ccccc1C2=O (stereo unspecified) too.
*A* group 1

* * *

Test system: Plasmodium falciparum NF54 stage V gametocytes;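 further: Saponin-lysis sexual stage assay in serum-free medium: MitoTracker Red CMXRos staining plus saponin, high-content imaging, particle count per well divided by plate mean of DMSO wells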
PROTOCOL DETAILS: viability index relative to DMSO control (fraction); higher = less gametocyte killing
CONDITION NOTES: 1.25 µM, incubation time: 72 h
Whole data set: some 3,600 compounds, median “viability index relative to DMSO control” near 0.81, cut for the lowest 2% near 0.13. The list comes from a sample in which the lowest values are over-represented; it also holds close analogues and randomly drawn compounds.
# note: boundary value 0.7 maps to Not met; viability index below it maps to Met

Completed entries (count: 5):
CCOC(=O)c1c(NC(=O)CSc2nnc(CNC(=O)c3ccc(C)c(C)c3)n2C2CCCCC2)sc2c1CCC2 = Not met
Cc1cc(Nc2ccc(O)cc2)nc2cccc(O)c12 = Not met
COc1cc(Cl)c(C)cc1NC(=O)C1c2ccccc2C(=O)N(CC(C)C)C1c1cccs1 (stereo unspecified) = Met
CCOc1ccccc1NC(=O)Cn1c(=O)n(Cc2ccccc2)c(=O)c2c(C)c(C(=O)N(C)C)sc21 = Not met
CC(=O)N(C1=C(N2CCOCC2)C(=O)c2ccccc2C1=O)c1ccc(I)cc1 = Met

Now take the following compound into account.
*Q* # check: viability index < 0.7 for O=c1c(=O)n(Cc2cccc(C(F)(F)F)c2)ccn1CCc1ccccc1
*A* Not met
